Test: Qualitative solubility screening
Format: physicochemical
Settings: organic solvent or mixture, thermodynamic from solid, solvent Dichloromethane; 50 mg in 4 mL; read-out: Solubility at Room Temp (RT)
MEASURED_ATTRIBUTE: solubility

Look up and report measured solubility for this entry: Br.CC(NC(C)(C)C)C(=O)c1cccc(Cl)c1 (stereo not shown) [Bupropion hydrobromide]
> 12.5 mg/mL

###

Would you mind telling me the reported DSC (onset ° C.) of each entry?
Assay: TGA and DSC characterization
Assay type: physicochemical
Conditions: successive thermal events listed per polymorph
I only need the number, in °C, no unit after it.

Look up and report measured DSC (onset ° C.) for this entry: Br.CC(NC(C)(C)C)C(=O)c1cccc(Cl)c1 (single isomer, unassigned) [Form VI]
235

Look up and report measured DSC (onset ° C.) for this entry: Br.CC(NC(C)(C)C)C(=O)c1cccc(Cl)c1 (single isomer, unassigned) [Form I]
236.81

Look up and report measured DSC (onset ° C.) for this entry: Br.CC(NC(C)(C)C)C(=O)c1cccc(Cl)c1 (stereo not shown) [Form VII]
268.7

Look up and report measured DSC (onset ° C.) for this entry: Br.CC(NC(C)(C)C)C(=O)c1cccc(Cl)c1 (stereo not shown) [Form V]
237.85

###

Assay: Qualitative solubility screening
Type: physicochemical
Settings: organic solvent or mixture, thermodynamic from solid, solvent 4-Methyl-2-Pentanone; 50 mg in 4 mL; read-out: Solubility at Room Temp (RT)
MEASURED_ATTRIBUTE: solubility

Look up and report measured solubility for this entry: Br.CC(NC(C)(C)C)C(=O)c1cccc(Cl)c1 (stereo not shown) [Bupropion hydrobromide]
< 12.5 mg/mL

###

Experiment: Qualitative solubility screening
Assay type: physicochemical
Settings: organic solvent or mixture, thermodynamic from solid, solvent Nitrobenezene; 50 mg in 4 mL; read-out: Solubility at Room Temp (RT)
MEASURED_ATTRIBUTE: solubility

Look up and report measured solubility for this entry: Br.CC(NC(C)(C)C)C(=O)c1cccc(Cl)c1 (stereo not shown) [Bupropion hydrobromide]
< 12.5 mg/mL

###

Experiment: Qualitative solubility screening
Assay type: physicochemical
Conditions: organic solvent or mixture, thermodynamic from solid, solvent t-Butyl Methyl Ether; 50 mg in 4 mL; read-out: Solubility at Room Temp (RT)
MEASURED_ATTRIBUTE: solubility

Look up and report measured solubility for this entry: Br.CC(NC(C)(C)C)C(=O)c1cccc(Cl)c1 (stereo not shown) [Bupropion hydrobromide]
< 12.5 mg/mL

###

Experiment: Qualitative solubility screening
Format: physicochemical
Details: organic solvent or mixture, thermodynamic from solid, solvent Methanol; 50 mg in 4 mL; read-out: Solubility at Room Temp (RT)
MEASURED_ATTRIBUTE: solubility

Look up and report measured solubility for this entry: Br.CC(NC(C)(C)C)C(=O)c1cccc(Cl)c1 (stereo not shown) [Bupropion hydrobromide]
> 12.5 mg/mL

###

Assay: Qualitative solubility screening
Format: physicochemical
Conditions: organic solvent or mixture, thermodynamic from solid, solvent Methyl-Cyclohexan; 50 mg in 4 mL; read-out: Solubility at Room Temp (RT)
MEASURED_ATTRIBUTE: solubility

Look up and report measured solubility for this entry: Br.CC(NC(C)(C)C)C(=O)c1cccc(Cl)c1 (stereo not shown) [Bupropion hydrobromide]
< 12.5 mg/mL

###

Experiment: Qualitative solubility screening
Assay type: physicochemical
Conditions: organic solvent or mixture, thermodynamic from solid, solvent Ethyl Acetate; 50 mg in 4 mL; read-out: Solubility at Room Temp (RT)
MEASURED_ATTRIBUTE: solubility

Look up and report measured solubility for this entry: Br.CC(NC(C)(C)C)C(=O)c1cccc(Cl)c1 (stereo not shown) [Bupropion hydrobromide]
< 12.5 mg/mL

These measurements were taken from patent US8604085B2.
